Test system: SK-MEL-5 melanoma
METHOD: NCI-60 one-dose screen, 48 h (100 = growth as untreated, 0 = no growth, -100 = all killed)
EXPERIMENTAL PARAMETERS: 10 µM unless noted
Compounds without any hit were thinned out: in the full panel of roughly 83,000, 20% have a hit.
MEASUREMENT KIND: growth (%)
The response must be a number in % with no trailing unit.

> print(dat)
                                   molecule  experimental.system  unit.info  result
1  CC(=Nc1ccccc1)C1=C(O)C(Cc2ccc(O)cc2)NC1=O (centres undefined)    SK-MEL-5 melanoma          %     -44
2  CC(C)[C@@H]1CC[C@]2(CO2)[C@@H]2C(=O)OCC(C(=O)O)=C[C@H]21    SK-MEL-5 melanoma          %   -42.8
3          Cc1ccc(N)cc1CN1C(=O)c2ccccc2C1=O    SK-MEL-5 melanoma          %     103
4  C=CC(=O)N(C)[C@H]1C[C@H]2OC(C)(C1OC)n1c3ccccc3c3c4c(c5c6ccccc6n2c5c31)C(=O)NC4 (some centres undefined)    SK-MEL-5 melanoma          %   -94.3
5  CNC(=O)c1cc(Oc2ccc(NC(=O)Nc3ccc(Cl)c(C(F)(F)F)c3)c(F)c2)ccn1    SK-MEL-5 melanoma          %   -95.9

Report growth, nothing else, for this molecule: NC(=O)c1c(OCc2c(F)cc(Br)cc2F)nsc1NC(=O)NCCCCN1CCCC1
-99.1

Specify growth for CC(C)[C@@H](C)/C=C/[C@@H](C)[C@H]1CCC2=C3C=CC4=CC(=O)CC[C@]4(C)[C@H]3CC[C@@]21C and stop.
89.5

Give the reported value of growth for this record: CN(C[C@@H]1COCCO1)S(=O)(=O)Nc1ccc2ccc3ncc(-c4cnn(C)c4)cc3c(=O)c2c1
36

Provide one value: measured growth of C=C1CC[C@@H]2[C@](C)(COC(C)=O)[C@H](OC(C)=O)CC[C@@]2(C)[C@@H]1C/C=C1/C(=O)OC[C@H]1OC(C)=O
56.2

Values from PubChem BioAssay (NCI)
